Exercise: state measured relative activity (%) E. coli HB101 (pNTOM4) for each of the compounds provided.
test system: polypeptide consisting of the amino acid sequence shown in SEQ ID NO: 4 (carbonyl reductase), cell-free extract of E. coli HB101 (pNTOM4); test: Substrate specificity of polypeptide produced by transformant E. coli HB101 (pNTOM4); format: biochemical, Ogataea minuta var. minuta NBRC0975; conditions: 1 mM substrate, 0.25 mM NADPH, pH 6.5, 30° C., 1 min; relative to activity on CBPB as 100%
Please respond with the number in % and leave the unit unwritten.

Request: Quote relative activity (%) E. coli HB101 (pNTOM4) reported for CCCCCC=O [n-hexylaldehyde] please.
Result: 3

Request: Consider the compound COC(=O)CC(C)=O [methyl acetoacetate] . State its measured relative activity (%) E. coli HB101 (pNTOM4).
Result: 0

Request: Dear colleague, please send me the reported relative activity (%) E. coli HB101 (pNTOM4) for CCC(C)=O [2-butanone] when you can.
Result: 0

Request: Return relative activity (%) E. coli HB101 (pNTOM4) (reported value) for this compound: CCOC(=O)CC(=O)CN=[N+]=[N-] [ethyl 4-azideacetoacetate]
Result: 1

Request: Give relative activity (%) E. coli HB101 (pNTOM4) for CC(C)=O [acetone]
Result: 0

Request: Entry CCOC(=O)CC(=O)CBr [ethyl 4-bromoacetoacetate] needs its relative activity (%) E. coli HB101 (pNTOM4) filled in; supply it.
Result: 7

Request: Respond only with relative activity (%) E. coli HB101 (pNTOM4) recorded for COc1ccc2c(c1)CC(=O)CC2 [7-methoxy-2-tetoralone]
Result: 6

Request: Give the value of relative activity (%) E. coli HB101 (pNTOM4) reported for the following: CC(=O)c1ccncc1 [4-acetylpyridine]
Result: 0

Request: Identify measured relative activity (%) E. coli HB101 (pNTOM4) corresponding to O=Cc1ccccc1Cl [o-chlorobenzaldehyde]
Result: 17

Request: // Input: O=C1CCCc2ccccc21 [1-tetoralone] . Output its relative activity (%) E. coli HB101 (pNTOM4) only.
Result: 1

Request: Please indicate relative activity (%) E. coli HB101 (pNTOM4) recorded for C=CC(C(C)=O)C(=O)OCC (stereo not drawn) [ethyl 2-eteneacetoacetate]
Result: 10

Request: Supply reported relative activity (%) E. coli HB101 (pNTOM4) belonging to this compound: CC(=O)c1ccccc1 [acetophenone]
Result: 0

Request: Identify measured relative activity (%) E. coli HB101 (pNTOM4) associated with O=CCCc1ccccc1 [3-phenylpropionaldehyde]
Result: 7

Request: Read off the recorded relative activity (%) E. coli HB101 (pNTOM4) for O=Cc1ccccc1[N+](=O)[O-] [o-nitrobenzaldehyde]
Result: 89

Request: Quickly give me recorded relative activity (%) E. coli HB101 (pNTOM4) for CC(=O)c1ccccn1 [2-acetylpyridine]
Result: 0

Request: For the compound CC(=O)CC(C)=O [acetylacetone] , give its measured relative activity (%) E. coli HB101 (pNTOM4) value.
Result: 0

Request: Report relative activity (%) E. coli HB101 (pNTOM4) for CCOC(=O)C1CCC(=O)C1 (stereo not drawn) [ethyl 3-oxocyclopentanecarboxylate]
Result: 12

Request: Tell me measured relative activity (%) E. coli HB101 (pNTOM4) for O=C(c1ccccc1)C(O)c1ccccc1 (stereo not drawn) [benzoin] please.
Result: 5

Request: Please give measured relative activity (%) E. coli HB101 (pNTOM4) of the following entry: CCOC(=O)C(C)=O [ethyl pyruvate]
Result: 23

Request: Supply relative activity (%) E. coli HB101 (pNTOM4) value. Item: CC(C)(C)OC(=O)N[C@@H](Cc1ccccc1)C(=O)CCl [CBPB]
Result: 100

Request: Could you please provide reported relative activity (%) E. coli HB101 (pNTOM4) for CC(=O)c1cccc([N+](=O)[O-])c1 [3′-nitroacetophenone] ? Thanks!
Result: 31

Request: Provide relative activity (%) E. coli HB101 (pNTOM4) value for the following compound: O=Cc1ccc(Cl)cc1 [p-chlorobenzaldehyde]
Result: 12

Request: Give a short answer stating reported relative activity (%) E. coli HB101 (pNTOM4) for CC(C=O)c1ccccc1 (stereo not drawn) [2-phenylpropionaldehyde] .
Result: 3

Request: Give the reported relative activity (%) E. coli HB101 (pNTOM4) for this compound. CC(=O)c1ccc(C)cc1 [4′-methylacetophenone]
Result: 1
